From: ChEMBL document CHEMBL5223086

target: Protein Mdm4 (Homo sapiens); experiment: Inhibition of human his-tagged MDM4 assessed as dissociation constant by ITC assay
value kind: pKd
# log scale: pKd equals minus log10 of the concentration in mol/L

Ask: Which pKd is listed for CC(C)(C)Oc1cc(C(=O)CC(N)=O)ccc1C1=N[C@@H](c2ccc(C(=O)O)cc2)[C@@H](c2c[nH]c3ccccc23)N1C(=O)N1CCNC(=O)C1 ?
Result: 7.57

----------
molecular target: Tumour suppressor protein p53/Mdm4 (Homo sapiens, UniProt O15151+P04637); experiment: Inhibition of human MDM4/p53 interaction by FP assay
Sequence (P04637 whole entry): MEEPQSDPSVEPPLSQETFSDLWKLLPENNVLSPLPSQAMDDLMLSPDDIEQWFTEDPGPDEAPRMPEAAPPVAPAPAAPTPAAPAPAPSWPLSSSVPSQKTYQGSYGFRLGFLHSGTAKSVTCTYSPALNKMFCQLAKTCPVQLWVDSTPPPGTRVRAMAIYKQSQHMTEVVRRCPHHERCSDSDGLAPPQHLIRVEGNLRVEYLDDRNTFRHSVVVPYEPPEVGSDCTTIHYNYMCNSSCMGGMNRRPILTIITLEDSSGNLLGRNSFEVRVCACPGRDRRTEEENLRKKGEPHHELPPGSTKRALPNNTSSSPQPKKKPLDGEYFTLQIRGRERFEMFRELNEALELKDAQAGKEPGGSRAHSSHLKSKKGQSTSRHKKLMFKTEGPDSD
Sequence (O15151 whole entry): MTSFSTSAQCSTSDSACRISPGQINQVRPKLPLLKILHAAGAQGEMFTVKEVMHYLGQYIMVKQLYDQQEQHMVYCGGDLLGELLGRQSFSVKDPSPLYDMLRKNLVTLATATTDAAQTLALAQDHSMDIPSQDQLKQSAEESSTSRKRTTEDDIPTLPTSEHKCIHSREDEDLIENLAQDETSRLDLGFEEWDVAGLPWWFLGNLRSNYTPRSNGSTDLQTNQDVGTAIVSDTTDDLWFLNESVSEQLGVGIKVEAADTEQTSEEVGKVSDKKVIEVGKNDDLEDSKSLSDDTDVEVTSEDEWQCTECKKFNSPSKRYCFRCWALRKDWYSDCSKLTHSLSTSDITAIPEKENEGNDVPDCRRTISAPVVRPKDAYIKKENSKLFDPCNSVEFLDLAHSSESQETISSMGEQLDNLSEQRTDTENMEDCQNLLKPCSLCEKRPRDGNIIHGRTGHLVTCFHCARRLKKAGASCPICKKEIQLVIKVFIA
value kind: Ki
Number plus unit, in that order.

Ask: Can you share its Ki? I mean this compound: Cc1cc(Cl)ccc1NCc1ccc(CN(C=O)C(C(=O)NC(C)(C)C)c2c(C(=O)O)[nH]c3cc(Cl)ccc23)cc1 (stereo unspecified)
Result: 3.73 µM

----------
target: E3 ubiquitin-protein ligase Mdm2 (Homo sapiens)
value kind: Ki (µM)
Kindly provide the numeric value in µM only, without the unit symbol.

Ask: GET /values?readout=Ki&item= O=C(CN(Cc1ccc(Cl)cc1)C(=O)c1cc2ccccc2[nH]1)NC1CCCCC1
Result: 5.5

----------
molecular target: Protein Mdm4 (Homo sapiens, UniProt O15151); assay: Inhibition of human MDM4
Sequence (O15151 whole entry): as above
value kind: pEC50
pEC50 is a log-scale quantity: -log10 of the concentration expressed in molar.

Ask: State the recorded pEC50 for this entry: COOc1cc(/C=C2\C(=O)N(c3ccccc3)N=C2C)cc(Cl)c1OCC(=O)OC
Result: 5.64

----------
biological target: E3 ubiquitin-protein ligase Mdm2 (Homo sapiens); assay: Inhibition of human MDM2
value kind: pEC50
Expect pEC50 as a plain number equal to -log10 of the molar concentration.

Ask: Request the reported pEC50 associated with COOc1cc(/C=C2\C(=O)N(c3ccccc3)N=C2C)cc(Cl)c1OCC(=O)OC
Result: 4.59

----------
Please provide measured pIC50 for the entries that follow.
molecular target: Tumour suppressor protein p53/Mdm4 (Homo sapiens, UniProt O15151+P04637); test: Inhibition of human MDM4/p53 interaction by TR-FRET assay; type: protein assay
Recall that pIC50 is obtained by taking minus log10 of the concentration measured in molar.

Ask: Look up pIC50 for this molecule: COc1ncc(-c2nc3c(n2C(C)C)[C@H](c2ccc(C#N)cc2)N([C@@H](C)c2cccc(Cl)c2)C3=O)c(OC)n1
Result: 6.24

Ask: Recorded pIC50 of COc1nc(N(C)C)ncc1-c1nc2c(n1C(C)C)[C@H](c1ccc(C#N)cc1)N(c1cc(Cl)cn(C)c1=O)C2=O , please.
Result: 5.89

----------
target: Protein Mdm4 (Homo sapiens); assay: Inhibition of MDM4 assessed as dissociation constant
value kind: Kd

Ask: Kd lookup needed for COc1cc(C(=O)O)ccc1NC(=O)[C@@H]1N[C@@H](CC(C)(C)C)[C@](C#N)(c2ccc(Cl)cc2F)[C@H]1c1cccc(Cl)c1F [IDASANUTLIN] , thanks.
Result: < 100 nM

----------
biological target: Protein Mdm4 (Homo sapiens); assay: Inhibition of human MDM4 by ELISA assay
value kind: IC50 (nM)
Please respond with the number in nM and leave the unit unwritten.

Ask: Report IC50 for H-ETFEHWWSQLLS-OH please.
Result: 110

----------
target: UniProtKB O15151; experiment: Binding affinity to human MDM4 assessed as inhibition constant
value kind: IC50 (µM)
Numbers only here, please. The scale is µM.

Ask: Given the molecule COc1ncc(-c2nc3c(n2C(C)C)C(c2ccc(Cl)cc2)N(c2cc(Cl)cn(C)c2=O)C3=O)c(OC)n1 (stereo unspecified) , what is its reported IC50?
Result: 3

----------
Could you please report measured IC50 for the items listed next?
target: Protein Mdm4 (Homo sapiens); assay: Inhibition of human MDM4 by TR-FRET assay
Write the answer as a number in nM, unit excluded.

Ask: Returns the measured IC50 for the input compound. Input: C[C@@H](c1cccc(Cl)c1)n1cnc(-c2ccccc2)c1-c1c(C(=O)NCCN2CCN(C3CCCCC3)CC2)[nH]c2cc(Cl)ccc12
Result: 145

Ask: Tell me the measured IC50 of C[C@@H](c1cccc(Cl)c1)n1cnc(-c2ccccc2)c1-c1c(C(=O)Nc2cc(C(=O)O)ccc2N2CCC(N3CCCOC3=O)CC2)[nH]c2cc(Cl)ccc12 , please.
Result: 17
